# procedure_summary: in vivo
# Set-up: species or system Sprague–Dawley rats
# conditions: male, Sprague-Dawley, rat, inhaled or intranasal, 10 mg/kg, Cmax
# Description: The Chungbuk National University Institutional Animal Care and Use Committee approved the experimental protocols and animal care methods used in this study. The first in vivo experiment was a pharmacokinetic study to determine the efficacy of NFM based on the route of administration and to determine the effect of lecithin as a stabilizer. […] The supernatant was quantified by HPLC analysis. […] The samples were quantified by HPLC analysis.
Counter-ions that a name gives are not always drawn.
outcome_measure: Cmax (ng/mL)
One number for each entry, in ng/mL.

Measured Cmax of N=C(N)c1ccc2cc(OC(=O)c3ccc(N=C(N)N)cc3)ccc2c1 [NFM, Nafamostat mesylate] : 25900

---

# procedure_summary: in vivo
# Design: species or system Sprague–Dawley rats
# conditions: male, Sprague-Dawley, rat, iv, 10 mg/kg, T½
Counter-ions that a name gives are not always drawn.
outcome_measure: half-life (min)
Answers are plain numbers, in min.

Measured half-life of N=C(N)c1ccc2cc(OC(=O)c3ccc(N=C(N)N)cc3)ccc2c1 [NFM, Nafamostat mesylate] : 13.2

---

# procedure_summary: in vivo
# Design: species or system Sprague–Dawley rats
# conditions: male, Sprague-Dawley, rat, iv, 10 mg/kg, Amount of NFM in BALF
Counter-ions that a name gives are not always drawn.
outcome_measure: concentration at 10 min (ng/mL)
Give bare numbers, in ng/mL.

Measured concentration at 10 min of N=C(N)c1ccc2cc(OC(=O)c3ccc(N=C(N)N)cc3)ccc2c1 [NFM, Nafamostat mesylate] : 960

---

# procedure_summary: in vivo
# Parameters: species or system Sprague–Dawley rats
# conditions: male, Sprague-Dawley, rat, 10 mg/kg, Tmax
Structures can show the parent of a compound that is named as a salt.
outcome_measure: Tmax (min)
Give bare numbers, in min.

Measured Tmax of N=C(N)c1ccc2cc(OC(=O)c3ccc(N=C(N)N)cc3)ccc2c1 [NFM, Nafamostat mesylate] : 5

---

# procedure_summary: in vivo
# Set-up: species or system Sprague–Dawley rats
# conditions: male, Sprague-Dawley, rat, 10 mg/kg, Amount of NFM in BALF
Counter-ions that a name gives are not always drawn.
outcome_measure: concentration at 10 min (ng/mL)
Numbers only, in ng/mL.

Measured concentration at 10 min of N=C(N)c1ccc2cc(OC(=O)c3ccc(N=C(N)N)cc3)ccc2c1 [NFM, Nafamostat mesylate] : 2900

---

# procedure_summary: in vivo
# Set-up: species or system Sprague–Dawley rats
# conditions: male, Sprague-Dawley, rat, 10 mg/kg, Amount of NFM in BALF
Counter-ions that a name gives are not always drawn.
outcome_measure: concentration at 30 min (µg/mL)
Numbers only, in µg/mL.

Measured concentration at 30 min of N=C(N)c1ccc2cc(OC(=O)c3ccc(N=C(N)N)cc3)ccc2c1 [NFM, Nafamostat mesylate] : 1.69

---

# procedure_summary: in vivo
# Design: species or system Sprague–Dawley rats
# conditions: male, Sprague-Dawley, rat, iv, 10 mg/kg, Cmax
Counter-ions that a name gives are not always drawn.
outcome_measure: Cmax (ng/mL)
Numbers only, in ng/mL.

Measured Cmax of N=C(N)c1ccc2cc(OC(=O)c3ccc(N=C(N)N)cc3)ccc2c1 [NFM, Nafamostat mesylate] : 43700
